self-cleavage kobs at 2500 uM GlcN6P listing for selected variants.
B1: glmS ribozyme (parent)
chain: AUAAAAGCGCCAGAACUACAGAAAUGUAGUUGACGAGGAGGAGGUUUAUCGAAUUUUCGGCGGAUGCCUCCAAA

variants of: B1; assay: self-cleavage kobs at 2500 uM GlcN6P; higher = faster cleavage; RNA array; settings: with glucosamine-6-phosphate
This sample holds only a part of the variants without activity.

{"columns": ["variant_notation", "self-cleavage kobs at 2500 uM GlcN6P"],
 "data": [
  ["G7A G38U G41U", "< 1e-05 s⁻¹"],
  ["A33G C34U U49A", "< 1e-05 s⁻¹"],
  ["G9U G38C G40U G43C", "< 1e-05 s⁻¹"],
  ["C16A A36C U49A U65G", "< 1e-05 s⁻¹"],
  ["C10U G29C G62C", "< 1e-05 s⁻¹"]
]}
